Experiment: Protein binding
Format: in vitro ADME
Settings: In vitro human plasma protein binding
// reported perc_recovered for each item listed

[
  {
    "input_smiles": "Cn1ncc(-c2cc3c(N[C@@H](c4ccc5c(n4)OCCO5)C(C)(C)C)ncnc3[nH]2)c1C#N",
    "perc_recovered / %": 99.19
  },
  {
    "input_smiles": "C[C@H](C(=O)O)[C@@H](NC(=O)c1ncnc2[nH]ccc12)c1ccc(Br)cc1",
    "perc_recovered / %": 99.4
  },
  {
    "input_smiles": "CC(C)[C@H](Nc1ncnc2[nH]ccc12)c1ccc2c(c1)S(=O)(=O)CCC2",
    "perc_recovered / %": 95.79
  }
]

----------
Known perc_inhibition_mean of a selection of compounds
Biological target: SARS-CoV-2 nsp3-mac1 (Severe acute respiratory syndrome coronavirus 2, UniProt P0DTD1)
Test: biochemical
Assay type: biochemical
Conditions: SARS-CoV-2 nsp3 macrodomain TR-FRET single point; concentration 49.75 uM

[
  {
    "compound": "Cc1nsc(N(C)C(=O)c2cnn3ccc(C4CCN(C(=O)c5ccccc5)CC4)cc23)n1 [ASAP-0000410]",
    "target_under_test": "SARS-CoV-2 nsp3-mac1 (Severe acute respiratory syndrome coronavirus 2, UniProt P0DTD1)",
    "quantity_unit": "%",
    "perc_inhibition_mean": -10.512
  },
  {
    "compound": "O=C(NCc1ncccn1)c1cnn2ccc(C3CCN(C(=O)c4ccccc4)CC3)cc12 [ASAP-0000355]",
    "target_under_test": "SARS-CoV-2 nsp3-mac1 (Severe acute respiratory syndrome coronavirus 2, UniProt P0DTD1)",
    "quantity_unit": "%",
    "perc_inhibition_mean": -0.074
  },
  {
    "compound": "Cc1c[nH]nc1C(=O)N1CCC(c2ccn3ncc(C(=O)N4CCCCC4)c3c2)CC1 [ASAP-0000423]",
    "target_under_test": "SARS-CoV-2 nsp3-mac1 (Severe acute respiratory syndrome coronavirus 2, UniProt P0DTD1)",
    "quantity_unit": "%",
    "perc_inhibition_mean": 8.474
  },
  {
    "compound": "O=C(c1ccccc1)N1CCC(c2ccn3ncc(C(=O)N4CCCC[C@H](O)C4)c3c2)CC1 [ASAP-0000396]",
    "target_under_test": "SARS-CoV-2 nsp3-mac1 (Severe acute respiratory syndrome coronavirus 2, UniProt P0DTD1)",
    "quantity_unit": "%",
    "perc_inhibition_mean": 17.833
  },
  {
    "compound": "Cc1ccc(NC(=O)c2cnn3ccc(C4CCN(C(=O)c5ccccc5)CC4)cc23)cc1C(=O)O [ASAP-0000354]",
    "target_under_test": "SARS-CoV-2 nsp3-mac1 (Severe acute respiratory syndrome coronavirus 2, UniProt P0DTD1)",
    "quantity_unit": "%",
    "perc_inhibition_mean": -1.047
  },
  {
    "compound": "O=C(N[C@@H]1COCC[C@H]1O)c1cnn2ccc(C3CCN(C(=O)c4ccccc4)CC3)cc12 [ASAP-0000399]",
    "target_under_test": "SARS-CoV-2 nsp3-mac1 (Severe acute respiratory syndrome coronavirus 2, UniProt P0DTD1)",
    "quantity_unit": "%",
    "perc_inhibition_mean": -5.013
  },
  {
    "compound": "CC(C)[C@H]1N(c2ncnc3[nH]ccc23)CC12CCOCC2 [ASAP-0000477]",
    "target_under_test": "SARS-CoV-2 nsp3-mac1 (Severe acute respiratory syndrome coronavirus 2, UniProt P0DTD1)",
    "quantity_unit": "%",
    "perc_inhibition_mean": 27.65
  },
  {
    "compound": "C[C@@H](Nc1ncnc2[nH]ccc12)c1cnn(Cc2ccccc2)c1 [ASAP-0000470]",
    "target_under_test": "SARS-CoV-2 nsp3-mac1 (Severe acute respiratory syndrome coronavirus 2, UniProt P0DTD1)",
    "quantity_unit": "%",
    "perc_inhibition_mean": -4.105
  },
  {
    "compound": "O=C(c1ccnc(S)c1)N1CCC(c2ccn3ncc(C(=O)N4CCCCC4)c3c2)CC1 [ASAP-0000402]",
    "target_under_test": "SARS-CoV-2 nsp3-mac1 (Severe acute respiratory syndrome coronavirus 2, UniProt P0DTD1)",
    "quantity_unit": "%",
    "perc_inhibition_mean": 20.252
  },
  {
    "compound": "O=C(O)c1ccc2c(c1)ncn2-c1ccc(CNC(=O)c2ncnc3[nH]ccc23)cc1 [ASAP-0000458]",
    "target_under_test": "SARS-CoV-2 nsp3-mac1 (Severe acute respiratory syndrome coronavirus 2, UniProt P0DTD1)",
    "quantity_unit": "%",
    "perc_inhibition_mean": -33.429
  },
  {
    "compound": "Cn1cc([C@@H](Nc2ncnc3[nH]ccc23)c2ccccc2)cn1 [ASAP-0000380]",
    "target_under_test": "SARS-CoV-2 nsp3-mac1 (Severe acute respiratory syndrome coronavirus 2, UniProt P0DTD1)",
    "quantity_unit": "%",
    "perc_inhibition_mean": 19.983
  },
  {
    "compound": "CC(C)[C@@H](CCN(C)C(=O)C1CCc2ccccc2CC1)Nc1ncnc2[nH]ccc12 [ASAP-0000481]",
    "target_under_test": "SARS-CoV-2 nsp3-mac1 (Severe acute respiratory syndrome coronavirus 2, UniProt P0DTD1)",
    "quantity_unit": "%",
    "perc_inhibition_mean": -5.62
  },
  {
    "compound": "O=C(N[C@@H](C(=O)O)[C@@H](O)Cc1ccccc1)c1ncnc2[nH]ccc12 [ASAP-0000461]",
    "target_under_test": "SARS-CoV-2 nsp3-mac1 (Severe acute respiratory syndrome coronavirus 2, UniProt P0DTD1)",
    "quantity_unit": "%",
    "perc_inhibition_mean": 3.789
  },
  {
    "compound": "c1nc(N[C@@H]2CCCc3c2cnn3C2CCCC2)c2cc[nH]c2n1 [ASAP-0000472]",
    "target_under_test": "SARS-CoV-2 nsp3-mac1 (Severe acute respiratory syndrome coronavirus 2, UniProt P0DTD1)",
    "quantity_unit": "%",
    "perc_inhibition_mean": 0.884
  }
]

src = paper doi:10.1101/2024.08.19.608619
